target: NR2F6 (Homo sapiens, UniProt P10588); construct: expressed in transfected cells; also transient transfection; assay: NR2F6 agonist screening, Firefly signal cmpd/DMSO; format: cell-based; settings: F4; 1% FBS; 10 uM
Sequence (P10588 whole entry): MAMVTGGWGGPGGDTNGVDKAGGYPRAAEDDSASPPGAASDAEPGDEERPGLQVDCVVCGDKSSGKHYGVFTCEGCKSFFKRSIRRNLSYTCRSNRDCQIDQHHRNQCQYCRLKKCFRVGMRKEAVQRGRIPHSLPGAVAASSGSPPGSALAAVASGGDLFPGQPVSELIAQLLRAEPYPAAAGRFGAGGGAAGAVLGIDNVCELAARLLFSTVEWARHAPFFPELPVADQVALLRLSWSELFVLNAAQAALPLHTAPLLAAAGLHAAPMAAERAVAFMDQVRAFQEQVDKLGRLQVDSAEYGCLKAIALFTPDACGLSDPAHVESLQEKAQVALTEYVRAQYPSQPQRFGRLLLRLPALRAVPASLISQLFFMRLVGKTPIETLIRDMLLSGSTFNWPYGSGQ
Would you kindly list Firefly, F4, 1% FBS, cmpd/DMSO (mean) for each of these molecules?
Number only, please.

Please supply the value of reported Firefly, F4, 1% FBS, cmpd/DMSO (mean) for the item O=S1(=O)C[C@H](N2CCCC2)[C@@H](S(=O)(=O)c2ccc(Cl)cc2)C1
2.8

Please supply the value of reported Firefly, F4, 1% FBS, cmpd/DMSO (mean) for the item CCC(C)N[C@H]1CS(=O)(=O)C[C@@H]1S(=O)(=O)c1ccc(Cl)cc1 (stereo partly drawn)
3.9

Please supply the value of reported Firefly, F4, 1% FBS, cmpd/DMSO (mean) for the item CC(C)OCCCN[C@H]1CS(=O)(=O)C[C@@H]1S(=O)(=O)c1ccc(Cl)cc1
4.2

* * *

biological target: NR2F6 (Homo sapiens); construct: expressed in transfected cells; also transient transfection; assay: NR2F6 agonist screening, Firefly signal cmpd/DMSO; type: cell-based; conditions: F4; 10% FBS; 10 uM
Value Kind: Firefly, F4, 10% FBS, cmpd/DMSO (mean)
Number only, please.

Please supply the value of reported Firefly, F4, 10% FBS, cmpd/DMSO (mean) for the item C[C@@H]1C[C@H](C)CN([C@H]2CS(=O)(=O)C[C@@H]2S(=O)(=O)c2ccccc2)C1
1.5

Please supply the value of reported Firefly, F4, 10% FBS, cmpd/DMSO (mean) for the item CC1CCN([C@H]2CS(=O)(=O)C[C@@H]2S(=O)(=O)c2cccs2)CC1
7.1

Please supply the value of reported Firefly, F4, 10% FBS, cmpd/DMSO (mean) for the item CCCCN(C)[C@H]1CS(=O)(=O)C[C@@H]1S(=O)(=O)c1ccc(Cl)cc1
3.3

Please supply the value of reported Firefly, F4, 10% FBS, cmpd/DMSO (mean) for the item O=S1(=O)C[C@H](NC2CCCCC2)[C@@H](S(=O)(=O)c2ccccc2)C1
1.1

Please supply the value of reported Firefly, F4, 10% FBS, cmpd/DMSO (mean) for the item O=S1(=O)C[C@H](N2CCCCC2)[C@@H](S(=O)(=O)c2ccc(Cl)cc2)C1
7.5

Please supply the value of reported Firefly, F4, 10% FBS, cmpd/DMSO (mean) for the item COCCCN[C@H]1CS(=O)(=O)C[C@@H]1S(=O)(=O)c1ccc(Cl)cc1
2.9

Please supply the value of reported Firefly, F4, 10% FBS, cmpd/DMSO (mean) for the item CC(C)N[C@H]1CS(=O)(=O)C[C@@H]1S(=O)(=O)c1ccc(Cl)cc1
5.1

Please supply the value of reported Firefly, F4, 10% FBS, cmpd/DMSO (mean) for the item COCCN[C@H]1CS(=O)(=O)C[C@@H]1S(=O)(=O)c1ccc(Cl)cc1
1.9

Please supply the value of reported Firefly, F4, 10% FBS, cmpd/DMSO (mean) for the item O=S1(=O)C[C@H](N2CCCC2)[C@@H](S(=O)(=O)c2ccc(Cl)cc2)C1
11

* * *

target: NR2F6 (Homo sapiens); construct: expressed in transfected cells; also transient transfection; experiment: NR2F6 agonist screening, Firefly signal cmpd/DMSO; type: cell-based; settings: C11 analogs follow set (Tables 2-10), repeat 2
Value Kind: Firefly, cmpd/DMSO repeat 2
Number only, please.

Please supply the value of reported Firefly, cmpd/DMSO repeat 2 for the item N#Cc1cccc(S(=O)(=O)c2cc3cc(Cl)ccc3oc2=O)c1
29.4

Please supply the value of reported Firefly, cmpd/DMSO repeat 2 for the item COc1ccc(NC(=O)c2ccc3oc(=O)c(S(=O)(=O)c4ccc(Cl)cc4)cc3c2)cc1
34.5

Please supply the value of reported Firefly, cmpd/DMSO repeat 2 for the item CC(C)(C)c1ccc(S(=O)(=O)c2cc3cc(Br)ccc3oc2=O)cc1
8.1

Please supply the value of reported Firefly, cmpd/DMSO repeat 2 for the item Cc1ccc(NC(=O)c2ccc3oc(=O)c(S(=O)(=O)c4ccc(C)cc4)cc3c2)cc1
20.6

* * *

Would you kindly list fold induction at 2 µM for each of these compounds?
tested on: HEK293 pGL4; assay: Firefly_pGL signal, cmpd/DMSO (pGL4 control cells); assay type: cell-based; settings: Homo sapiens, HEK293, pGL4; 1% FBS; 2 uM; read-out: Firefly, pGL4, 1% FBS, cmpd/DMSO (mean)
Number only, please.

Please supply the value of reported fold induction at 2 µM for the item C[C@@H]1C[C@H](C)CN([C@H]2CS(=O)(=O)C[C@@H]2S(=O)(=O)c2cccs2)C1 [Compound D109]
1.3

Please supply the value of reported fold induction at 2 µM for the item O=S1(=O)C[C@H](NCc2ccncc2)[C@@H](S(=O)(=O)c2cccs2)C1 [Compound D108]
1.2

Please supply the value of reported fold induction at 2 µM for the item O=S1(=O)C[C@H](NC2CCCCC2)[C@@H](S(=O)(=O)c2ccccc2)C1 [Compound D111]
1.2

Please supply the value of reported fold induction at 2 µM for the item O=S1(=O)C[C@H](NC2CCCC2)[C@@H](S(=O)(=O)c2ccc(F)cc2)C1 [Compound D114]
1.3

Please supply the value of reported fold induction at 2 µM for the item O=S1(=O)C[C@H](NC2CCCCC2)[C@@H](S(=O)(=O)c2ccc(Cl)cc2)C1 [Compound D124]
1.6

Please supply the value of reported fold induction at 2 µM for the item CC1CCN([C@H]2CS(=O)(=O)C[C@@H]2S(=O)(=O)c2cccs2)CC1 [Compound D106]
1.8

Please supply the value of reported fold induction at 2 µM for the item CCCCN(C)[C@H]1CS(=O)(=O)C[C@@H]1S(=O)(=O)c1ccc(Cl)cc1 [Compound D132]
1.6

Please supply the value of reported fold induction at 2 µM for the item CCC(C)N[C@H]1CS(=O)(=O)C[C@@H]1S(=O)(=O)c1ccc(Cl)cc1 (stereo partly shown) [Compound D121]
1.1

Please supply the value of reported fold induction at 2 µM for the item COCCN[C@H]1CS(=O)(=O)C[C@@H]1S(=O)(=O)c1ccc(Cl)cc1 [Compound D136]
0.9

Please supply the value of reported fold induction at 2 µM for the item O=S1(=O)C[C@H](NCC2CCCO2)[C@@H](S(=O)(=O)c2cccs2)C1 (stereo partly shown) [Compound D134]
1.3

Please supply the value of reported fold induction at 2 µM for the item CCCN[C@H]1CS(=O)(=O)C[C@@H]1S(=O)(=O)c1ccc(Cl)cc1 [Compound D117]
1.4

Please supply the value of reported fold induction at 2 µM for the item CCC(C)N[C@H]1CS(=O)(=O)C[C@@H]1S(=O)(=O)c1ccc(C)cc1 (stereo partly shown) [Compound D113]
1.2

Please supply the value of reported fold induction at 2 µM for the item O=S1(=O)C[C@H](NCCc2cccs2)[C@@H](S(=O)(=O)c2ccc(Cl)cc2)C1 [Compound D128]
1.3

* * *

target: NR2F6 (Homo sapiens, UniProt P10588); construct: expressed in transfected cells; also transient transfection; assay: NR2F6 agonist screening, Firefly signal cmpd/DMSO; format: cell-based; details: C11 analogs follow set (Tables 2-10), repeat 2
Classes based on Firefly, cmpd/DMSO repeat 2: 1 = under 2, 2 = from 2 up to 10, 3 = 10 and over

State the band of O=C(Nc1ccc(F)cc1)c1ccc2oc(=O)c(S(=O)(=O)c3ccc(F)cc3)cc2c1
1

State the band of COc1ccccc1NC(=O)c1ccc2oc(=O)c(S(=O)(=O)c3ccc(Cl)cc3)cc2c1
3

State the band of Cc1ccc(S(=O)(=O)c2cc3cc(C(=O)Nc4ccc(C)c(C)c4)ccc3oc2=O)cc1
3

State the band of CCN(CC)c1ccc2cc(S(=O)(=O)c3ccc(Br)cc3)c(=O)oc2c1
2

State the band of Cc1cc(C)cc(S(=O)(=O)c2cc3cc(Br)ccc3oc2=O)c1
1

State the band of COc1ccc2oc(=O)c(S(=O)(=O)c3ccccc3)cc2c1
1

State the band of O=c1oc2cc(O)ccc2cc1S(=O)(=O)c1ccccc1
1

State the band of O=c1oc2ccc(Cl)cc2cc1S(=O)(=O)c1cc(F)cc(F)c1
2

State the band of O=c1oc2ccccc2cc1S(=O)(=O)c1cccc(Cl)c1
3

State the band of COc1ccc2cc(S(=O)(=O)c3cc(C)cc(C)c3)c(=O)oc2c1
1

State the band of O=c1oc2ccccc2cc1S(=O)(=O)c1ccc(Br)cc1
3

State the band of COc1ccc(S(=O)(=O)c2cc3cc(Cl)ccc3oc2=O)cc1
3

State the band of CC(C)(C)c1ccc(S(=O)(=O)c2cc3cc(Cl)ccc3oc2=O)cc1
2

State the band of O=c1oc2ccc([N+](=O)[O-])cc2cc1S(=O)(=O)c1ccc(Br)cc1
3

State the band of COC(=O)c1ccc2oc(=O)c(S(=O)(=O)c3ccc(F)cc3)cc2c1
3

State the band of COc1cc(NC(=O)c2ccc3oc(=O)c(S(=O)(=O)c4ccc(Cl)cc4)cc3c2)cc(OC)c1
2

State the band of Cc1ccc(S(=O)(=O)c2cc3ccccc3oc2=O)cc1
1

State the band of Cc1cc(S(=O)(=O)c2cc3cc(F)ccc3oc2=O)ccc1F
1

State the band of COC(=O)c1ccc2oc(=O)c(S(=O)(=O)c3ccc(Cl)cc3)cc2c1
1

State the band of O=c1oc2ccc([N+](=O)[O-])cc2cc1S(=O)(=O)c1ccc(F)cc1
3

State the band of COc1cc(NC(=O)c2ccc3oc(=O)c(S(=O)(=O)c4ccccc4)cc3c2)cc(OC)c1
2

State the band of COC(=O)c1ccc2oc(=O)c(S(=O)(=O)c3ccccc3)cc2c1
3

State the band of O=c1oc2ccc(Br)cc2cc1S(=O)(=O)c1ccc(F)cc1
1

State the band of O=C(NCCc1ccccc1)c1ccc2oc(=O)c(S(=O)(=O)c3ccccc3)cc2c1
3

State the band of COc1cccc(S(=O)(=O)c2cc3ccc(OC)cc3oc2=O)c1
1

State the band of O=c1oc2ccc(Br)cc2cc1S(=O)(=O)c1ccccc1F
2

State the band of O=c1oc2ccc(F)cc2cc1S(=O)(=O)c1ccc(F)cc1
3

Value source: patent US11377442B2
